# credit: patent US11530208B2

target: UniProt:Q16853; test: SSAO enzyme inhibition assay; settings: purified recombinantly expressed human SSAO, benzylamine substrate, RT
Sequence (Q16853 29-763): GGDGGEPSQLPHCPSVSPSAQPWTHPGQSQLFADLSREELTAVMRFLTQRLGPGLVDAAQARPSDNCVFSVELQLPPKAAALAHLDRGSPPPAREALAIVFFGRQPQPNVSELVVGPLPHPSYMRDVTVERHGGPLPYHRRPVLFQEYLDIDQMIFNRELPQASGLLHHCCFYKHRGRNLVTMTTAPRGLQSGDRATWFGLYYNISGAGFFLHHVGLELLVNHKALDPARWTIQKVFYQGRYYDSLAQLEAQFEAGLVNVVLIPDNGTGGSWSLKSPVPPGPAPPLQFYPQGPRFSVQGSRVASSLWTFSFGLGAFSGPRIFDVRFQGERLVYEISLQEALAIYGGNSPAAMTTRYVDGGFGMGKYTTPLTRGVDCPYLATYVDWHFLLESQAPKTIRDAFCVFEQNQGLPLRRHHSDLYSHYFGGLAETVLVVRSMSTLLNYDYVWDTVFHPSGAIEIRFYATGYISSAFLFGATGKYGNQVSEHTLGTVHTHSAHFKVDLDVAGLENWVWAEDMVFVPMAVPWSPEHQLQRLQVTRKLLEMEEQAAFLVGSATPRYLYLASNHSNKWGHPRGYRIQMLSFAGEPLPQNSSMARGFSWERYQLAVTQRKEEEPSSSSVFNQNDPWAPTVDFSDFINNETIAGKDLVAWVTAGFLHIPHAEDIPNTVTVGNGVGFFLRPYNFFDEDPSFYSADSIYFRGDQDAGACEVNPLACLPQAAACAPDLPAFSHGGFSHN
pIC50: −log10 of the molar value.
Listing of entries alongside the reported pIC50.

>  <mol>
Clc1ccc(-n2c(C3CCN(c4ccncc4)CC3)nc3ccncc32)cc1

>  <system_under_test>
UniProt:Q16853

>  <pIC50>
> 7.30

$$$$
>  <mol>
Clc1ccc(-n2c(Cc3cccnc3)nc3ccncc32)cc1

>  <system_under_test>
UniProt:Q16853

>  <pIC50>
6.30 to 6.70

$$$$
>  <mol>
Cc1ccc(-n2c(-c3cnc(NCC(C)(C)O)nc3)nc3ccncc32)cc1

>  <system_under_test>
UniProt:Q16853

>  <pIC50>
> 7.30

$$$$
>  <mol>
CC(C)(O)CNc1ncc(-c2nc3ccncc3n2-c2ccc(F)cc2)cn1

>  <system_under_test>
UniProt:Q16853

>  <pIC50>
> 7.30

$$$$
>  <mol>
O=C1Cc2cc(-c3nc4ccncc4n3-c3ccc(F)cc3)ccc2N1

>  <system_under_test>
UniProt:Q16853

>  <pIC50>
6.70 to 7.30

$$$$
>  <mol>
Clc1ccc(-n2c(CCCn3ccnc3)nc3ccncc32)cc1

>  <system_under_test>
UniProt:Q16853

>  <pIC50>
6.30 to 6.70

$$$$
>  <mol>
Fc1ccc(-n2c(-c3ccc4nc[nH]c4c3)nc3ccncc32)cc1

>  <system_under_test>
UniProt:Q16853

>  <pIC50>
6.30 to 6.70

$$$$
>  <mol>
O=C(NCC1CCOCC1)c1nc2ccncc2n1-c1ccc(F)cc1

>  <system_under_test>
UniProt:Q16853

>  <pIC50>
6.30 to 6.70

$$$$
>  <mol>
O=c1cc(N2CCC(c3nc4ccncc4n3-c3ccc(Cl)cc3)CC2)nc[nH]1

>  <system_under_test>
UniProt:Q16853

>  <pIC50>
6.30 to 6.70

$$$$
